Test system: MCF7
Experiment: Cytotoxic activity against human MCF7 cells
Format: functional, cell-based
Settings: Homo sapiens, MCF7; read-out: IC50
pIC50: −log10 of the molar value.

| Molecule | pIC50 |
| --- | --- |
| CC(=O)OCCOC(=O)[C@@H](CS[C@H]1CCC[C@H](C)OC(=O)Cc2cc(O)cc(O)c2C(=O)C1)OC(C)=O | 5.33 |
| C[C@H]1CCC[C@H](SC[C@@H](O)C(=O)O)CC(=O)c2c(O)cc(O)cc2CC(=O)O1 | 5.36 |
| COC(=O)[C@H](O)CS[C@H]1CCC[C@H](C)OC(=O)Cc2cc(O)cc(O)c2C(=O)C1 | 5.36 |
| C[C@H]1CCC/C=C/C(=O)c2c(O)cc(O)cc2CC(=O)O1 [DEHYDROCURVULARIN] | 5.40 |
